Here the recorded pIC50 is given for each entry.
# TARGET UNDER TEST: Recombinant human EP300 containing the bromodomain (EP300-BD (1040-1161)) (Homo sapiens, UniProt Q09472)
# Construct: Recombinant human EP300 bromodomain (EP300-BD (1040-1161))
# Sequence (Q09472 1040-1161): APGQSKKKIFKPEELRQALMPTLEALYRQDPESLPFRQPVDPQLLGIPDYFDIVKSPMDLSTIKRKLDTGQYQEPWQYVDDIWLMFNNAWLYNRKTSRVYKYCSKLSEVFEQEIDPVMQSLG
# PROCEDURE SUMMARY: EP300 Alphascreen binding assay
pIC50: −log10 of the molar value.

COMPOUND: Cc1noc(C)c1-c1cnc2c(c1)c(-c1ccc(C(=O)O)cc1OC(F)(F)F)cn2C(CC#N)C1CCCC1 (centres unmarked) [P-0200]
pIC50: 6.00 to 10.00
//
COMPOUND: CNC(=O)c1ccc(-c2cn(C(c3ccccn3)C3CCCC3)c3ncc(-c4c(C)noc4C)cc23)cc1 (centres unmarked) [P-0021]
pIC50: 5.10 to 6.00
//
COMPOUND: Cc1noc(C)c1-c1cnc2c(c1)c(-c1ccc(C(=O)O)cc1)cn2C(C)c1ccccn1 (centres unmarked) [P-0080]
pIC50: 5.10 to 6.00
//
COMPOUND: CCOc1cc(C(=O)O)cc(OC(C)C)c1-c1cn([C@@H](C)c2ccccn2)c2ncc(-c3c(C)noc3C)cc12 [P-0174]
pIC50: 6.00 to 10.00
//
COMPOUND: Cc1noc(C)c1-c1cnc2c(CC3CCC3)cn(-c3ccc(C(=O)O)cc3OC(F)(F)F)c2c1 [P-0066]
pIC50: 6.00 to 10.00
//
COMPOUND: Cc1noc(C)c1-c1cnc2c(c1)c(-c1ccc(C(=O)O)cc1OC(F)(F)F)cn2-c1ccc(C#N)cc1 [P-0313]
pIC50: 6.00 to 10.00
//
COMPOUND: Cc1noc(C)c1-c1cnc2c(C3=CCOCC3)cn(-c3c(Cl)cc(C(=O)O)cc3Cl)c2c1 [P-0151]
pIC50: 6.00 to 10.00
//
COMPOUND: COC(=O)c1cc(-n2cc(Cc3ccccc3)c3ncc(-c4c(C)noc4C)cc32)ccn1 [P-0052]
pIC50: 6.00 to 10.00

* * *

# TARGET UNDER TEST: Recombinant human EP300 containing the bromodomain (EP300-BD (1040-1161)) (Homo sapiens, UniProt Q09472)
# Construct: Recombinant human EP300 bromodomain (EP300-BD (1040-1161))
# PROCEDURE SUMMARY: EP300 Alphascreen binding assay
pIC50: −log10 of the molar value.
VALUE TYPE: pIC50

TEST SMILES: Cc1noc(C)c1-c1cnc2c(c1)c(-c1ccc(C(=O)O)cc1OC(F)(F)F)cn2-c1cnccc1F
MEASURED VALUE: 6.00 to 10.00

TEST SMILES: Cc1noc(C)c1-c1cnc2c(c1)c(-c1ccc(C(=O)O)cc1OC(F)(F)F)cn2-c1ccccc1Cl
MEASURED VALUE: 6.00 to 10.00

TEST SMILES: COC(=O)c1cc(Cl)c(-c2cn(-c3ccc(C4CC4)nc3)c3ncc(-c4c(C)noc4C)cc23)c(OC(F)(F)F)c1
MEASURED VALUE: 5.10 to 6.00

TEST SMILES: CCOc1ccc(C(=O)O)cc1-n1cc(-c2ccccc2)c2ncc(-c3c(C)noc3C)cc21
MEASURED VALUE: 6.00 to 10.00

TEST SMILES: CCOc1cc(C(=O)O)cc(OCC)c1-n1cc(CC2CCC2)c2ncc(-c3c(C)noc3C)cc21
MEASURED VALUE: 6.00 to 10.00

TEST SMILES: Cc1noc(C)c1-c1cnc2c(c1)c(-c1ccc(C(=O)O)cc1OC1CC1)cn2[C@@H](C)c1ccccn1
MEASURED VALUE: 6.00 to 10.00

TEST SMILES: Cc1noc(C)c1-c1cnc2c(c1)c(-c1nccc(C(=O)O)n1)cn2[C@@H](C)c1ccccn1
MEASURED VALUE: 5.10 to 6.00

TEST SMILES: Cc1noc(C)c1-c1cnc2c(Cc3ccccn3)cn(-c3ccc(C(=O)O)cn3)c2c1
MEASURED VALUE: 6.00 to 10.00

* * *

Here the recorded pIC50 is given for each entry.
# TARGET UNDER TEST: Recombinant human BRD4 containing dual bromodomains (BRD4-BD12 (1-477)) (Homo sapiens, UniProt O60885)
# Construct: Recombinant human BRD4 containing dual bromodomains (BRD4-BD12 (1-477))
# PROCEDURE SUMMARY: BRD4 Alphascreen binding assay
pIC50: −log10 of the molar value.
VALUE TYPE: pIC50

COMPOUND: Cc1cnccc1-n1cc(-c2ccc(C(=O)O)cc2OC(F)(F)F)c2cc(-c3c(C)noc3C)cnc21
MEASURED VALUE: 5.10 to 6.00

COMPOUND: Cc1noc(C)c1-c1cnc2c(CC3CC3)cn(-c3ccnc(C(=O)O)c3)c2c1
MEASURED VALUE: 5.10 to 6.00

COMPOUND: Cc1noc(C)c1-c1cnc2c(c1)c(-c1c(Cl)cc(C(=O)O)cc1OCC(F)F)cn2-c1cnc(N2CCC2)nc1
MEASURED VALUE: 6.00 to 10.00

COMPOUND: Cc1noc(C)c1-c1cnc2c(c1)c(-c1cccc(S(=O)(=O)NC3CC3)c1)cn2Cc1ccccc1
MEASURED VALUE: 5.10 to 6.00

COMPOUND: Cc1noc(C)c1-c1cnc2c(c1)c(-c1ccc(C(=O)O)cc1OC(C)C)cn2-c1cnn(CC(C)(C)O)c1
MEASURED VALUE: 5.10 to 6.00

COMPOUND: Cc1noc(C)c1-c1cnc2c(c1)c(-c1ccc(C(=O)O)cc1OC(F)(F)F)cn2C1CCCC1
MEASURED VALUE: 5.10 to 6.00

COMPOUND: CCOc1nc(C(=O)O)c(Cl)cc1-c1cn([C@H]2CCOC2)c2ncc(-c3c(C)noc3C)cc12
MEASURED VALUE: 3.00 to 5.10

COMPOUND: Cc1noc(C)c1-c1cnc2c(c1)c(-c1ccc(C(=O)O)cn1)cn2C(C)c1ccccn1 (centres unmarked)
MEASURED VALUE: 3.00 to 5.10

* * *

Here the recorded pIC50 is given for each entry.
# TARGET UNDER TEST: Recombinant human BRD4 containing dual bromodomains (BRD4-BD12 (1-477)) (Homo sapiens, UniProt O60885)
# Construct: Recombinant human BRD4 containing dual bromodomains (BRD4-BD12 (1-477))
# PROCEDURE SUMMARY: BRD4 Alphascreen binding assay
pIC50: −log10 of the molar value.

COMPOUND: Cc1noc(C)c1-c1cnc2c(c1)c(-c1cnn(CC(=O)O)c1)cn2C(c1ccccn1)C1CCCC1 (stereo not shown) [P-0036]
pIC50: 5.10 to 6.00
//
COMPOUND: CCOc1cc(C(=O)O)ncc1-c1cn(-c2ccc(F)cc2F)c2ncc(-c3c(C)noc3C)cc12 [P-0295]
pIC50: 5.10 to 6.00
//
COMPOUND: Cc1noc(C)c1-c1cnc2c(c1)c(-c1c(Cl)cc(C(=O)O)cc1OC(C)C)cn2C1CCOCC1 [P-0372]
pIC50: 5.10 to 6.00
//
COMPOUND: C=C(C)c1ccccc1-n1cc(-c2ccc(C(=O)O)cc2OC(F)(F)F)c2cc(-c3c(C)noc3C)cnc21 [P-0312]
pIC50: 3.00 to 5.10
//
COMPOUND: CCOc1c(F)c(C(=O)O)c(F)c(OCC)c1-c1cn(-c2ccc(F)cc2F)c2ncc(-c3c(C)noc3C)cc12 [P-0296]
pIC50: 3.00 to 5.10
//
COMPOUND: Cc1noc(C)c1-c1cnc2c(c1)c(-c1ccc(C(=O)O)cc1OC(F)(F)F)cn2-c1cnn(C(F)F)c1C [P-0289]
pIC50: 5.10 to 6.00
//
COMPOUND: Cc1noc(C)c1-c1cnc2c(CC3CCC3)cn(-c3ccnc(C#N)c3)c2c1 [P-0077]
pIC50: 5.10 to 6.00
//
COMPOUND: Cc1noc(C)c1-c1cnc2c(c1)c(-c1ccc(C(=O)O)cc1OC1CC1)cn2C1CCOCC1 [P-0379]
pIC50: 3.00 to 5.10
//
COMPOUND: Cc1noc(C)c1-c1cnc2c(-c3cnn(C)c3)c(C(F)(F)F)n([C@@H](C)c3ccccn3)c2c1 [P-0160]
pIC50: 6.00 to 10.00
//
COMPOUND: Cc1noc(C)c1-c1ccc2c(c1)c(-c1ccc(C(=O)O)cc1OC(F)(F)F)cn2C(C1CC1)C1CC1 [P-0344]
pIC50: 3.00 to 5.10
//
COMPOUND: Cc1noc(C)c1-c1cnc2c(c1)c(-c1ccc(C(=O)O)cc1OC(F)(F)F)cn2CC1CC(F)(F)C1 [P-0157]
pIC50: 6.00 to 10.00
//
COMPOUND: COc1ccc(CC(=O)O)cc1-c1cn(-c2ccc(F)cc2F)c2ncc(-c3c(C)noc3C)cc12 [P-0443]
pIC50: 5.10 to 6.00
//
COMPOUND: Cc1noc(C)c1-c1cnc2c(c1)c(-c1ccc(CC(=O)O)cc1)cn2C(c1ccccn1)C1CCCC1 (stereo not shown) [P-0031]
pIC50: 5.10 to 6.00
//
COMPOUND: Cc1noc(C)c1-c1cnc2c(c1)c(-c1ccc(C(=O)O)cc1OCC(F)F)cn2-c1cnc(C2CC2)nc1 [P-0387]
pIC50: 3.00 to 5.10
//
COMPOUND: CCOc1cc(C(=O)O)cc(OCC)c1-n1cc(-c2ccnc(F)c2)c2ncc(-c3c(C)noc3C)cc21 [P-0222]
pIC50: 5.10 to 6.00
//
COMPOUND: CCOc1cc(C(=O)O)cc(OCC)c1-n1cc(-c2ccc(C#N)cc2F)c2ncc(-c3c(C)noc3C)cc21 [P-0217]
pIC50: 5.10 to 6.00
//
COMPOUND: Cc1noc(C)c1-c1cnc2c(c1)c(-c1ccc(C(=O)O)cc1OC(F)(F)F)c(C)n2-c1ncccc1C#N [P-0345]
pIC50: 3.00 to 5.10
//
COMPOUND: C#Cc1ccccc1-c1cn(C(C)(c2ccccn2)c2ccccn2)c2cc(-c3c(C)noc3C)cnc12 [P-0167]
pIC50: 6.00 to 10.00
//
COMPOUND: CCOc1nc(C(=O)O)ccc1-c1cn(C2CCOCC2)c2ncc(-c3c(C)noc3C)cc12 [P-0376]
pIC50: 3.00 to 5.10
//
COMPOUND: Cc1noc(C)c1-c1cnc2c(-c3cc(C(=O)O)ccc3Cl)c(C(F)(F)F)n([C@@H](C)c3ccccn3)c2c1 [P-0257]
pIC50: 3.00 to 5.10
//
COMPOUND: Cc1noc(C)c1-c1cnc2c(-c3ccc(C(=O)O)cc3C#CC3CC3)cn([C@@H](C)c3ccccn3)c2c1 [P-0171]
pIC50: 6.00 to 10.00
//
COMPOUND: Cc1noc(C)c1-c1cnc2c(c1)c(-c1ccnc(O)c1)cn2[C@@H](C)c1ccccn1 [P-0145]
pIC50: 3.00 to 5.10
//
COMPOUND: Cc1noc(C)c1-c1cnc2c(c1)c(-c1ccc(C(=O)O)cc1OC(F)(F)F)cn2-c1cc(F)ccc1F [P-0233]
pIC50: 5.10 to 6.00
//
COMPOUND: COc1cccc(OC)c1-n1cc(-c2ccccc2)c2ncc(-c3c(C)noc3C)cc21 [P-0221]
pIC50: 3.00 to 5.10
//
COMPOUND: Cc1noc(C)c1-c1cnc2c(c1)c(-c1ccc(C(=O)O)cc1OC(F)(F)F)cn2[C@H]1CCOC1 [P-0285]
pIC50: 3.00 to 5.10
